assay.text: soluble on expression in E. coli; label from the status in PepcDB or PDB records

| sequence.data | soluble on expression in E. coli |
| --- | --- |
| MVSIIIPIYNVQDYINDCLYSVYTQTYSEIEVILVNDCTPDNSMLIAHSNIEKLKKRFNVKIIDHKSNKGLSAARNSGVKEATGEWVYFLDSDDEITPDCIECFVRLAERYLSVDFIVGGIRVIGRNISYRLTTSEYVIGNDNILKCYISGMWYEMAWNKLIRKEYFVSNNLWFKEGLLHEDQLFSYQLATTALTMATVNKPTYIYKMRMSGAITSSNGRKNFDSFICILEYMVYSVMQKYSTSSVTLEYAQIIRFSYSILLSLYGKHNLTEMEVVNYELKVDRICRIVTFYKCKLPVPIQIKLTIIKLPQTMRKVLLKWHNKKIQKKLEHHHHHH | soluble |
| MSLSELAVTEAEKGQDMIRSAVGEIKITNASLACYSWPRAQPIQNGLHTYVNVNIAITKIETDIGITGYGIGRNNPGENAIRHQFLSTMIGKDPTATAAVWAQLWSPKLYGRRGQETKALSSIDMALWDIKGKIAGMPIWRLLGGYRNRIPTYVAGGYYAKGKGLKDLQQEMANHVERGARGVKMKVGAVDIAEDVERINAVRKALGPDIKLMIDANCAYTYFDAIRLAKRVEEFDIYWFEEPVQPDDYEGFTKLSRATSIPLATGENEYTKHGFRDLIATQAISFLQPDARYMGGVTEFMKVAAMAEAHGLVICPHGDQQAHIQLLGAIPNAHLLEFYPKELNPMFGSVYKHTPDLNEDGTVTIPDVPGMATEPNEKMLERYRVAEGHHHHHH | soluble |
